- Target under test: T1, human CD47 expressed on cells (CD47 expressing CHO cells, Jurkat, HL60, DLD1, Raji) (human, UniProt Q08722 19-292)
- T1 construct: also called CHO-CD47; IAP
- Assay notes: EC50 (nM) as grade, flow cytometry, Fab on HL60 cells; legend +++: <1 nM
Quantity kind: EC50

# input In one line, give reported EC50 of the entry ABU24 (Fab) (Fab, V domains shown, Phage-derived Fab: murine VL and VH fused to human CL and CH1) VH: EVQLQQPGTELVKPGASVKLSCKASGYTFTSYWMHWVKQRPGQGLEWIGNVVPNNDGTNYNEKFRNKATLTVDKSSSTAYMQLSSLTSEDSAVYYCAVTYFAYWGQGTLVTVSA VL: DAVVTQESALTTSPGETVTLTCRSSTGAVSTSNYANWVQEKPDHLFTGLIGGTNNRAPGVPARFSGSLIGDKAALTITGAQTEDEAIYFCALWYSNHWVFGGGTKLTVL .
# output < 1 nM

# input Using the record for ABU40 (Fab) (Fab, V domains shown, Phage-derived Fab: murine VL and VH fused to human CL and CH1) VH: EVQLQQPGTELVKPGASVKLSCKASGYSFTTYWMHWVKQRPGQGLEWIGNINPSSGDSHYNEKFKSKATLTVDKSSSTAYMQLNSLTSEDSAVYYCARDYYGAYWGHGTLVTVSA VL: DIQMTQSPASLSASVGETVTITCRASENIYSYLAWYQQKQGKSPQLLVYNAKTLAEGVPSRFSGSGSGTQFSLKINSLQPEDFGSYYCQHHYGTPLTFGAGTKLELK , state its measured EC50.
# output < 1 nM
